molecular target: topoisomerase I (Homo sapiens)
Sequence (P11387 2-765): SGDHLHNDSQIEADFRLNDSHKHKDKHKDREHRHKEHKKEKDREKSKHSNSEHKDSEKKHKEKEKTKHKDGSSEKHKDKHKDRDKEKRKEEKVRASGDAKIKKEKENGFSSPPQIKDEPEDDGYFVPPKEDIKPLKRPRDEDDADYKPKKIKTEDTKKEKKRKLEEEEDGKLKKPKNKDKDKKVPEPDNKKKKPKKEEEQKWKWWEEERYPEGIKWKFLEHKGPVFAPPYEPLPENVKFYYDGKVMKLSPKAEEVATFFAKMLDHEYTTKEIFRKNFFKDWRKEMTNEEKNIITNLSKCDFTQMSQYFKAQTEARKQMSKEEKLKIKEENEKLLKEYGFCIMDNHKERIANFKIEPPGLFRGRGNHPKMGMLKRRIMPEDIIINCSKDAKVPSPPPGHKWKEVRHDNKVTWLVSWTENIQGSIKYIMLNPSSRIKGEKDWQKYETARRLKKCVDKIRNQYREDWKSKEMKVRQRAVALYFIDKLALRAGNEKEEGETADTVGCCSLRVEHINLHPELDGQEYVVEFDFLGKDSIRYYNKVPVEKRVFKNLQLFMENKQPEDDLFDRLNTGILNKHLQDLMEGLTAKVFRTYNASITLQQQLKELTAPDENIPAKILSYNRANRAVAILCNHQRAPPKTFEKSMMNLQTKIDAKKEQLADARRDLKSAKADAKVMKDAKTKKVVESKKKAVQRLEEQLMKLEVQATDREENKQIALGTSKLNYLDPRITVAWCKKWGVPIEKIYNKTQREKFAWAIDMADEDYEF
measured attribute: IC50 (µM)
Give the value in µM but do not write µM after it.

q: Answer with the recorded IC50 of CN(C)c1ccc(C2C3=C(Nc4[nH]c(=S)[nH]c(=O)c42)c2ccccc2C3=O)cc1 (stereo not shown) only.
a: 38.8
